Reported ELISA OD450 @ 1 ug/ml values are given for each entry in this list.
target_or_system: T1, His-tagged human B7-H3 (human, UniProt Q5ZPR3-2 29-245, limits assumed)
T1 construct: Bought His-tagged protein coated on the ELISA plate; also called hu B7-H3; CD276
T1 sequence (looked up): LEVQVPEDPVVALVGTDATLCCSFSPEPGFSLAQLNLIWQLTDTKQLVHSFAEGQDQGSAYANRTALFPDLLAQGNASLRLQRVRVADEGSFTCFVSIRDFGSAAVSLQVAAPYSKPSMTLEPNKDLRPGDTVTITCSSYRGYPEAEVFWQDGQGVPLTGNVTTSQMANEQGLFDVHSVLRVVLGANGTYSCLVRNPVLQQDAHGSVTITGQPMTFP
test: ELISA, coated His-tagged antigen, scFv-Fc 1 ug/ml

| binder | measurement_unit | ELISA OD450 @ 1 ug/ml |
| --- | --- | --- |
| 40633p1.1.F2 (scFv, V domains shown, Tested as scFv-Fc (Expi293 supernatant)) VH: EVQLLESGGGLVQPGGSLRLSCVASGLTFNGFAMTWVRQAPGKGLEWVSGISWNSGSIYYADSVKGRFTISRDNSKNTVYLQMSSLRAEDTAIYYCAKNWNDYYNSMDVWGQGTTVTVSS VL: QSVLTQPPSASGTPGQRVTISCSGSRSNIGTKYVYWYQQFPGTAPKLLIYTTDRRPSGVPDRFSGSKSGTSASLAISGLQSEDEADYYCSAWDDRLNAWVFGGGTKLTVL | OD450 | 1.76 |
| 40633p1.1.H11 (scFv, V domains shown, Tested as scFv-Fc (Expi293 supernatant)) VH: EVQLLESGGGLVQPGGSLRLSCAASGFTFSSYPMTWVRQAPGKGLEWVADINSGGGTTLYADAVKGRFTISRDNSKNIVYLQMNSLRGEDTAVYYCAKHLDYYSYGMDVWGQGTTVTVSS VL: QSVLTQPPSASGTPGQRVTISCSGVTSKIGSKYVHWYQQLPGTAPKLLIYRNFERPSGVPDRFSGSTSGTSASLAISGLQSEDEADYYCATWEGALNGWVFGGGTKLTVL | OD450 | 2.07 |
| 40511p1.1.H5 (scFv, V domains shown, Tested as scFv-Fc (Expi293 supernatant)) VH: DVQLVESGGGVVRPGESLRLSCAASGFTFSNYAMNWVRQAPGEGLEWVSRINYKGYNITYYADSVKGRFTISRDNSKNTLYLQMNSLRAEDTAVYYCAKSGSNSNNFFDYWGLGTLVTVSS VL: EIVLTQSPGTLSLSPGERATLSCRASQSIRSDLAWYQQKPGQAPRLLIYGAASRATGIPARFSGSGSGTEFTLTISSLQSGDFAVYYCQQYNSWPPLTFGGGTKVEIK | OD450 | 1.71 |
| 40633p1.1.G11 (scFv, V domains shown, Tested as scFv-Fc (Expi293 supernatant)) VH: EVQLLESGGGLVQPGGSLRLSCAASGFTVSYYGMSWVRQAPGKGLEWVSVIKQDGSEEYYADSVKGRFTISRDNSKNTLYLQMNSPRAEDTAVYYCARHWNDYSNGMNVWGQGTTVTVSS VL: QSVLTQPPSASGTPGQRVTISCSGSTSNVGDRYVYWYQQLPGTAPKLLIYLDDQRPSGVPDRFSGSKSGTSASLAISGLQSEDEADYYCASWDASLNGWVFGGGTKLTVL | OD450 | 2.05 |
| 40579p1.D8 (scFv, V domains shown, Tested as scFv-Fc (Expi293 supernatant)) VH: EVQLLESGGGLVQPGGSLRLSCAASGFTFSDYYMSWVRQAPGKGLEWVSSISISYGGTTYYADSVKGRFTISRDNSKNTLYLQMNSLRAEDTAVYYCARDRSPYQCRSMDVWGQGTTVTVSS VL: EIVLTQSPGTLSLSPGERATLSCRASQSIRSDLAWYQQKPGQAPRLLIYNTVTRATGVPDRFSGSGSGTEFTLTISSLQSEDFAVYYCQQYNSWPPLTFGGGTKVEIK | OD450 | 1.01 |
| 40579p1.F7 (scFv, V domains shown, Tested as scFv-Fc (Expi293 supernatant)) VH: EVQLLESGGGLVQPGGSLRLSCAASGFTFSDYYMSWVRQAPGKGLEWVSGISISYGGNAYYADSVKGRFTVSRDNSKNTLYLQMNSLRAEDTAVYYCGRDRSPYQYRSMDVWGQGTTVTVSS VL: EIVLTQSPGTLSLSPGERATLTCRASQSVGDFLAWYQQKPGQAPRLLIYGASTRAAGIPARFRGSGSGTDFTLTISSLQSEDFAVYYCQQYKNWPPLTFGGGTKVEIK | OD450 | 2.02 |
| 40511p1.2.A12 (scFv, V domains shown, Tested as scFv-Fc (Expi293 supernatant); also called 40511p1.2.Al2) VH: DVQLVESGGGVVRPGESLRLSCAASGFTFSSYAESWVRQAPGEGLEWVSIISGSGGNTFYADSVKGRFTISRDNSKNTLYLQMNSLRAEDTAVYYCARFAYGFFDYWGLGTLVTVSS VL: EIVLTQSPGTLSVSPGERATLSCRASQTVGSKLAWYQQKPGQPPSLLIYDASTRATGIPDRFSGSGSGTDFTLTISSLQSEDFAVYYCQQYRNWPPLTFGGGTKVEIK | OD450 | 2.13 |
| 40633p1.1.G7 (scFv, V domains shown, Tested as scFv-Fc (Expi293 supernatant)) VH: EVQLLESGGGLVQPGGSLRLSCAASGFTFSGSAMNWVRQAPGKGLEWVSAINSGGTTIYYADSVKGRFTVSRDNSKNTLYLQMNSLRAEDTAVYYCVKLDFYYGMDVWGEGTTVTVSS VL: QSVVTQPPSASGTPGQRVTVSCSGSSSNVGSKYVQWYQQLPGTAPKLLIYATDRRPSGVPDRFSGSKSGTSASLAISGLQSEDEADYYCASWDDSLNAWVFGGGTKLTVL | OD450 | 2.16 |
| 40579p1.D1 (scFv, V domains shown, Tested as scFv-Fc (Expi293 supernatant)) VH: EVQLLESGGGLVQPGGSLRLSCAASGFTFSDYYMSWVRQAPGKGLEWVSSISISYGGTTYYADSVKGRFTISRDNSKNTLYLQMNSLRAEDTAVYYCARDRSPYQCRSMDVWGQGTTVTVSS VL: EIVLTQSPGSLSLSPGERATLSCRASQSVNSDLAWYQQKPGQAPRLLIYAASSRATGIPARFSGSGSGTEFTLTISSLQSEDFAVYYCQQYNNWPPLTFGGGTKVEIK | OD450 | 0.492 |
| 40579p1.H7 (scFv, V domains shown, Tested as scFv-Fc (Expi293 supernatant)) VH: EVQLLESGGDLVQPGGSLRLSCAASGFNFSSYWMSWVRQAPGKGLEWVSGISISYGGNAYYADSVKGRFTVSRDNSKNTLYLQMNSLRAEDTAVYYCGRDRSPYQYRSMDVWGQGTTVTVSS VL: EIVLTQSPGTLSLSPGERATLSCRASQSIRSDLAWYQQKPGQAPRLLIYGASSRATGIPARFSGSGSGTEFTLTISSLQSEDFAVYYCQQYNNWPPLTFGGGTKVEIK | OD450 | 1.86 |
